The following compounds are listed with their measured relative viability values.
Tested on: LXF-289
Assay: relative viability (nuclei count vs DMSO), 5 days (fraction); higher = more cells survive
Settings: first compound 0.0002 µM
# answer = number (no unit)

Below, each entry is followed by its recorded relative viability result.
CC(=O)O[C@@]12CO[C@@H]1C[C@H](O)[C@@]1(C)C(=O)[C@H](O)C3=C(C)[C@@H](OC(=O)[C@H](O)[C@@H](NC(=O)OC(C)(C)C)c4ccccc4)C[C@@](O)([C@@H](OC(=O)c4ccccc4)[C@H]21)C3(C)C [Docetaxel] + O=C(c1cc(Cc2n[nH]c(=O)c3ccccc23)ccc1F)N1CCN(C(=O)C2CC2)CC1 [Olaparib] (partner 8 µM)    1.06
CC(=O)O[C@@]12CO[C@@H]1C[C@H](O)[C@@]1(C)C(=O)[C@H](O)C3=C(C)[C@@H](OC(=O)[C@H](O)[C@@H](NC(=O)OC(C)(C)C)c4ccccc4)C[C@@](O)([C@@H](OC(=O)c4ccccc4)[C@H]21)C3(C)C [Docetaxel] + CC(=O)Nc1cccc(-n2c(=O)n(C3CC3)c(=O)c3c(Nc4ccc(I)cc4F)n(C)c(=O)c(C)c32)c1 [Trametinib] (partner 0.02 µM)    0.648
CC(=O)O[C@@]12CO[C@@H]1C[C@H](O)[C@@]1(C)C(=O)[C@H](O)C3=C(C)[C@@H](OC(=O)[C@H](O)[C@@H](NC(=O)OC(C)(C)C)c4ccccc4)C[C@@](O)([C@@H](OC(=O)c4ccccc4)[C@H]21)C3(C)C [Docetaxel] + CS(=O)(=O)CCNCc1ccc(-c2ccc3ncnc(Nc4ccc(OCc5cccc(F)c5)c(Cl)c4)c3c2)o1 [Lapatinib] (partner 2 µM)    0.926

Turning now to a further compound:
Lookup: Would you kindly share the measured relative viability for CC(=O)O[C@@]12CO[C@@H]1C[C@H](O)[C@@]1(C)C(=O)[C@H](O)C3=C(C)[C@@H](OC(=O)[C@H](O)[C@@H](NC(=O)OC(C)(C)C)c4ccccc4)C[C@@](O)([C@@H](OC(=O)c4ccccc4)[C@H]21)C3(C)C [Docetaxel] + Nc1ncn([C@H]2C[C@H](O)[C@@H](CO)O2)c(=O)n1 [Decitabine] (partner 2 µM) ?
Found: 0.383
